The origin of these recorded values is the supplement of paper PMC12764529.

- METHOD_SUMMARY: folding stability dG unfold (combined trypsin and chymotrypsin); higher = more stable
READOUT_LABEL: folding stability dG unfold (kcal/mol)
Kindly provide the numeric value in kcal/mol only, without the unit symbol.

Enquiry: Which folding stability dG unfold is listed for SAMSPEEIRARARALLEEKYPDKPYTLLSVEVDPSTGRVTVTWESPTPEKTTVTTPLTVTFGADGSLRESAG [r14_183_JUSTAS] ?
Return: 2.02

Enquiry: Please do the same for SAGGMKIRLDNGKEIEINQSPGYMSIQIRPPDDGKKREYPFPMPDGENSMEDFVNEIANHGRITEIEPSAGG [r13_579_TrROS] as well.
Return: -0.249

Enquiry: Please do the same for SAGGSMTVETSISRLPDGTYTVTVTFTLKNPDGSPVGTITIPVTMSPEVLAKTPLETVVAEAVAAASAGGSA [r2_421_JUSTAS] as well.
Return: 3.09

Enquiry: Please do the same for SAGGSAGGTIIIEVDTREDALEAARALAEALLPPGYRVEIVSVEEVDGRVYVAIEVRPVPEEELSAGGSAGG [r6_72_TrROS_Hall] as well.
Return: 3.17

Enquiry: Please do the same for SAGGSAGGSAKYITIFFWGSVEEALKSIPIPPGFKVEIDNIHRNPDGWMWVMITIEIPPNMKSAGGSAGGSA [r18_510_TrROS] as well.
Return: 4.28

Enquiry: Please do the same for SAGGSAGGSAGKEYYVVAKVEDPSTGKVTVYVGPFSDFVKTFDPKNSKVEFFLVEKDALKSAGGSAGGSAGG [r11_334_TrMRF] as well.
Return: 2.89

Enquiry: Please do the same for SAGGSAGGSMKKIKVKIKITDKDGNKKEVEAEIFFDEETGKLYIKLPNGEVKEISLEDIEIVESAGGSAGGS [r12_256_TrROS_Hall] as well.
Return: 3.63

Enquiry: Please do the same for SAGGSAGSVPSIVIESYDPEKGIVTVSYPATGATYTVEVPPGSTSLTVTVTDADGTPRTFTFPLPGSAGGSA [r2_132_JUSTAS] as well.
Return: 5.36

Enquiry: Please do the same for SGLAPGEVVPEKFEREITDPETGKKYKVEVTTEIAPENPVRRVTVTTTPPDGTTTTTEEVIPPGEEYTLESA [r9_88_JUSTAS] as well.
Return: 0.468

Enquiry: Please do the same for SAGGSAGGSAGGMIIVPVVTEETVDVTFRKTPEGVWEPVGPQTITTTTTLTIDPTKGRLSAGGSAGGSAGGS [r10_93_JUSTAS] as well.
Return: -0.443

Enquiry: Please do the same for SAGGSAGGSAEKTLTVVIKVKPNKTPEEIAKEIKKKLNLPNVEIVSIEYDKETNYITIKVKVSAGGSAGGSA [r18_481_TrROS_Hall] as well.
Return: 3.47

Enquiry: Please do the same for SAMMTPEERAFVERLRALFAERGGRIEIRFFEEPDRIEILVEEDDPELIREIREELARIPFPISRIVEESAG [r14_284_TrMRF] as well.
Return: 3.33

Enquiry: Please do the same for SAGGSAGGSSEVIEKLLELNPDVEVVSVTPTPNGVTVTVATKEGGEETVSSAELEKLGVKIRLSAGGSAGGS [r12_3_JUSTAS] as well.
Return: 0.1

Enquiry: Please do the same for SAKNIAIKVSIWPFDPEDGEPQTFEITYPFPDPEDAIDEIEEFLPPGYRVKIEVFDPDGKPLKEIEIRISAG [r14_234_TrROS] as well.
Return: 2.09

Enquiry: Please do the same for SAGGSAGGSKPIVAPVSVEDLTLEGLKALVDSHPEGEVPIFVTRSDGKPLVITVLPDGELSLDSAGGSAGGS [r12_1054_TrMRF] as well.
Return: -0.318

Enquiry: Please do the same for SAGGSSGSIDRVELLSFDPEKGIALVRFPSFGSIQVIPIPPGKNSLKVKVINKNGEPFEFTFSLPLSAGGSA [r2_132_TrMRF] as well.
Return: 3

Enquiry: Please do the same for SAGGSAGGSAGGMEKVTEVKPVATLPNGTVVTETLVTYTAPNGPEIGEEVVLTEDPVPKSAGGSAGGSAGGS [r10_941_JUSTAS] as well.
Return: -0.455

Enquiry: Please do the same for SAGGSAGGSAGKKIKYRITIYNKKTGKTIEIEIEMSEDEIKKIAEELAKKYNVKIKIEPVSAGGSAGGSAGG [r11_515_TrROS_Hall] as well.
Return: 4.56

Enquiry: Please do the same for SAGGSAGGSAGGGRVELELTFIREDGYAVKVRIEVDEDGNLRIEVEVVKLPPAASPEELSAGGSAGGSAGGS [r10_878_TrROS_Hall] as well.
Return: 2.86

Enquiry: Please do the same for SAGGSAGGSAGGKTYKITVSSGDTYLTISIELPDGLVLTYKITPNSIEVEIKPLKDFNESAGGSAGGSAGGS [r10_1169_TrMRF] as well.
Return: 5.51

Enquiry: Please do the same for SASAAEEIERALLPLPNIPTAPLATFTLPDAPVEVVSYDPVTGRVLVRLTGTGALFVFDPETGEAELLPSAG [r14_359_TrMRF] as well.
Return: 2.7

Enquiry: Please do the same for SAGGSAGGSAGGEIKSGDKVVLVFNEDGKGYKAYYEEELEKLLKEDPKIKKVLVVDVPAESAGGSAGGSAGG [r7_118_TrMRF] as well.
Return: -0.429

Enquiry: Please do the same for SAGGSAGGSRLGLEEFERIAREIAEELGISDLVAEVEELEDDYALLTIYNPETGEKLEILVPGSAGGSAGGS [r12_1000_TrMRF] as well.
Return: 1.07

Enquiry: Please do the same for SAGGSAGGSAGGLLKLKLKLKYEFTFKDENGNTYKVEKELTLVLELPPINETGKKNLVLSAGGSAGGSAGGS [r10_168_TrMRF] as well.
Return: 3.12

Enquiry: Please do the same for SAGGSAGGSRKTILFRFPDGMMIKISLEENPNGNKRVRVTVYNPDNGKKRRMPADELPPNAKISAGGSAGGS [r12_797_TrROS] as well.
Return: 2.64

Enquiry: Please do the same for SAGGSAGGSAGGKPLYLRITVKNKDGSEREIVVPLDTTIDDILAALPPNVTEVKIEVFPVSAGGSAGGSAGG [r7_288_TrROS_Hall] as well.
Return: 3.52
